- System: HT-29
- protocolSummary: NCI tumour cell line growth inhibition, 48 h
Active and inactive are the calls of the source. Cut-off read from the data, not from the text of the source: active = GI50 up to about 1.1 µM and inactive = higher.
In this exercise, the only acceptable responses are yes (1) (active), no (0) (inactive)

Sample answers from the record:
NC(=S)NS(=O)(=O)c1ccc(Cl)cc1    no (0)
O=C(N/N=C/c1cc(Br)ccc1O)N/N=C/c1cc(Br)ccc1O    no (0)
N#CC1CC(c2ccccc2)Nc2cc(Cl)ccc2N1 (stereo unspecified)    no (0)
Cc1cccc(/C=N/NC(=S)N2CCCC2)n1    yes (1)
c1cc(-c2ccc(-c3ccc(-c4ccc(-c5ccncc5)o4)cc3)o2)ccn1    no (0)

Exercise: Which result was noted for this compound in the test: c1ccc(C(c2ccccc2)[P+](c2ccccc2)(c2ccccc2)c2ccccc2)cc1
Solution: yes (1)
